biological target: rat brain cortical membranes (GABA receptor complex, [35S]-TBPS binding); assay: Steroid inhibition of [35S]-TBPS binding; conditions: 3 nM [35S]-TBPS, in the presence of 5 mM GABA
MEASUREMENT_KIND: IC50

[
  {
    "COMPOUND": "C[C@@H]1C[C@H]2[C@@H]3CC[C@H]4C[C@](C)(O)CC[C@]4(C)[C@H]3CC[C@]2(C)[C@H]1C(=O)Cn1cc(C#N)cn1 [Compound 66]",
    "IC50": "0.01 to 0.05 µM"
  },
  {
    "COMPOUND": "COc1ccc2nn(CC(=O)[C@H]3[C@H](C(C)C)C[C@H]4[C@@H]5CC[C@H]6C[C@](C)(O)CC[C@]6(C)[C@H]5CC[C@@]43C)nc2c1 [Compound 77]",
    "IC50": "≥ 0.5 µM"
  },
  {
    "COMPOUND": "C[C@H]1C[C@H]2C[C@](C)(O)CC[C@]2(C)[C@H]2CC[C@]3(C)[C@@H](C#N)CC[C@H]3[C@H]12 [Compound 2]",
    "IC50": "≥ 0.5 µM"
  }
]

-- ask Tell us which IC50 value is on record for C[C@H]1C[C@H]2C[C@](C)(O)CC[C@]2(C)[C@H]2CC[C@]3(C)[C@@H](C(=O)Cn4cc5ccncc5n4)CC[C@H]3[C@H]12 [Compound 7]
-- reply ≥ 0.5 µM

-- ask Tell us which IC50 value is on record for CO[C@@H]1C[C@H]2C[C@](C)(O)CC[C@]2(C)[C@H]2CC[C@]3(C)[C@@H](C(C)=O)CC[C@H]3[C@H]12 [Compound 29]
-- reply ≥ 0.5 µM

-- ask Tell us which IC50 value is on record for C[C@@]1(O)CC[C@@]2(C)[C@@H](CC[C@@H]3[C@@H]2CC(=O)[C@]2(C)[C@@H](C(=O)Cn4cc(C#N)cn4)CC[C@@H]32)C1 [Compound 48]
-- reply ≥ 0.5 µM
